meta.source: the supplement of paper PMC10290057

# Tested on: HCT116;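 further: Luminescence-based viability readout, five doses per compound, normalized against on-plate DMSO and empty-well controls, followed by dose-response curve fitting for every drug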
# PROCEDURE_TEXT: efficacy (fitted maximal change in viability relative to DMSO control); higher = less cytotoxic (negative = loss of viability)
# STUDY_CONDITIONS: 48 h
Recorded efficacy values for a group of compounds are listed next.
Only the number, expressed in %, is required.

Example entries begin here.
{"COMPOUND": "CC(C)[C@H](N)C(=O)OCCOC[N]1C=NC2=C1\\N=C(N)/NC2=O", "TESTED_SYSTEM": "HCT116", "UOM": "%", "QUANTITATIVE_RESULT": 8.42}
{"COMPOUND": "CN1\\N=C(N)/C2=C[N]([C@@H]3O[C@H](CO[P](O)(O)=O)[C@@H](O)[C@H]3O)C4=C2C1=NC=N4 [Triciribine phosphate]", "TESTED_SYSTEM": "HCT116", "UOM": "%", "QUANTITATIVE_RESULT": -90.5}
{"COMPOUND": "Cc1cccc(-c2n[nH]cc2-c2ccc(F)c(-c3cnn(CCO)c3)c2)n1", "TESTED_SYSTEM": "HCT116", "UOM": "%", "QUANTITATIVE_RESULT": -71.1}
{"COMPOUND": "CO[C@@H]1[C@@H](OC(N)=O)[C@@H](O)[C@H](OC2=CC=C3\\C(=C(NC(=O)C4=CC=C([O-])C(=C4)CC=C(C)C)/C(=O)OC3=C2C)O)OC1(C)C [Novobiocin sodium]", "TESTED_SYSTEM": "HCT116", "UOM": "%", "QUANTITATIVE_RESULT": 3.79}
{"COMPOUND": "Oc1ccc(Nc2nc(-c3ccc(Cl)cc3)cs2)cc1", "TESTED_SYSTEM": "HCT116", "UOM": "%", "QUANTITATIVE_RESULT": -62.8}

Prompt line: Given CCN1CCCC1CNC(=O)c1cc([S+](=O)([O-])CC)c(N)cc1OC (configuration not stated) [Amisulpride] , state its recorded efficacy.
Response line: -6.46

Prompt line: And for `ClC1=CC\2=C(NC(=O)\C(=C2N[C@@H]3CN4CCC3CC4)C5=NC6=C([NH]5)C=CC=C6)C=C1` ?
Response line: -80.9

Prompt line: Same read-out for `Cc1cccc(CC(=O)N2CCc3c2ccc(-c2cn(C)c4ncnc(N)c24)c3F)n1` ?
Response line: -43.2

Prompt line: Also `C[C@H](NC(=O)[C@@H]1C[C@@H](O)CN1C(=O)[C@@H](NC(=O)COCCCOCCNC(=O)C[C@@H]2\N=C(C3=CC=C(Cl)C=C3)/C4=C(SC(=C4C)C)[N]5C(=NN=C25)C)C(C)(C)C)C6=CC=C(C=C6)C7=C(C)N=CS7` , if possible.
Response line: -91

Prompt line: What about this compound? `Oc1ccc([C@@H]2Oc3ccc(O)cc3[C@@H]3CCC[C@@H]32)cc1`
Response line: -73.8

Prompt line: What about `CCN(CC)CCCCNc1nc2cc(Cl)c(Cl)cc2nc1-c1ccc(-c2cccs2)s1` ?
Response line: -97.7

Prompt line: Quick one: `CC(C)C[C@H](CC(=O)O)C(=O)N[C@@H](Cc1c[nH]c2ccccc12)C(=O)N[C@@H](C)c1ccccc1`
Response line: 10.9

Prompt line: For `Cc1cccc(-c2nn3c(c2-c2ccnc4ccc(C(N)=O)cc24)CCC3)n1` then?
Response line: 12.5
